- System: HCT-116
- measurement protocol: Cytotoxicity against human HCT-116 cells
- Assay type: functional, cell-based
quantity kind: IC50 (µM)
One number for each entry, in µM.

Record request: IC50 value, item COc1cc(OC)c(-c2ccc(F)cc2)cc1C(=O)/C=C/c1ccccc1
5.17

----------
For each of the compounds below, state its IC50.
- measurement protocol: Cytotoxicity against HEK293T cells
- Type: toxicity, cell-based, HEK-293T
- protocol conditions: human
Numbers only, in µM.

compound: CC[C@@]1(O)C(=O)OCc2c1cc1n(c2=O)Cc2cc3ccccc3nc2-1 [CAMPTOTHECIN]
IC50 [µM]: 0.03

Record request: IC50 value, item COc1cc(OC)c(-c2ccc(F)cc2)cc1C(=O)/C=C/c1ccccc1
5.19

----------
- measurement protocol: Cytotoxicity against HUVEC cells
- Assay type: toxicity, cell-based
- protocol conditions: human
quantity kind: pIC50
Numbers only, as −log10 of the molar value.

record smiles: CC[C@@]1(O)C(=O)OCc2c1cc1n(c2=O)Cc2cc3ccccc3nc2-1
reported value: 7.22

We now examine a further molecule.
Record request: pIC50 value, item COc1cc(OC)c(-c2ccc(F)cc2)cc1C(=O)/C=C/c1ccccc1
4.71

----------
- Test system: MDA-MB-231
- measurement protocol: Cytotoxicity against human MDA-MB-231 cells
- Format: functional, cell-based
quantity kind: IC50

record smiles: COc1cc(OC)c(-c2ccc(F)cc2)cc1C(=O)/C=C/c1ccccc1
quantity kind: IC50
reported value: 10.7 µM

Record request: IC50 value, item CC[C@@]1(O)C(=O)OCc2c1cc1n(c2=O)Cc2cc3ccccc3nc2-1
> 100 µM

Reference for the values: ChEMBL document CHEMBL5257062
